Target: T1, monkey IL-23R-mouse Fc fusion protein (monkey; mouse)
T1 construct: extracellular domain; also called monkey IL-23R-Fc fusion protein
Experiment: antigen ELISA, monkey IL-23R-Fc immobilized, HRP anti-human IgG, chemiluminescence
Experimental: The present inventors used an antigen ELISA to measure the antigen-specific binding activities of the fully human antibodies constructed in Example 6. […] A BM-chemiluminescence ELISA substrate (POD) (Roche Diagnostics) that is a reagent for detecting chemiluminescence was added thereto and the amount of chemiluminescence was measured with an EnVision counter (Perkin Elmer). Each of the antibodies was tested in duplicate, and the EC 50 was analyzed by curve fitting.
Each entry below lists one item and its recorded EC50 value.
Give the number; ng/mL is assumed, so skip it.

The cases that follow already have their EC50 on record.
binder	EC50 [ng/mL]
fully human antibody 30-15 (antibody, human IgG1, kappa, V domains shown, Human Ig gamma1 / human kappa constant regions; also called 30-15 (fully human); fully human 30-15 antibody) VH: QVQLVQSGAEVKKPGASMKVSCKVSGYTLNELSIHWVRQAPGKGLEWMGGFDPEHGETVYAQNFQDRVTLTEDTSTDTSYMGLNNLRSDDTAVYYCAAESYGDYEFWGQGTLVTVSS VL: DIQMTQSPSSVSASVGDRVTITCRASQGINNWLAWYQQKPGKAPKVLIYTASSLQSGVPSRFSGSGSGTDFTLTISSLQPEDFATYYCQQANSHPWTFGQGTKVEIKR	7.6
fully human antibody 30-18 (antibody, human IgG1, kappa, V domains shown, Human Ig gamma1 / human kappa constant regions; also called 30-18 (fully human); fully human 30-18 antibody) VH: QVQLVQSGAEVKKPGASVKVSCKVSGYTLNELSIHWVRQAPGKGLEWMGGFDPEHSETLYAQNFQDRLTLTEDTSTETACMELNSLRSDDTAVYYCAAESYGDYEFWGQGTLVTVSS VL: DIQMTQSPSSVSASVGDRVTITCRASQDISSWLAWYQQKPGKAPKVLIYTASSLQSGVPSRFSGSGSGTDFTLTISSLQPEDFATYYCQQANSHPWTFGQGTKVEIKR	8.4

The binder fully human antibody 30-16 (antibody, human IgG1, kappa, V domains shown, Human Ig gamma1 / human kappa constant regions; also called 30-16 (fully human); fully human 30-16 antibody) VH: QVQVVQSGAEVKKPGASVKVSCKVSGYTLIELAIHWVRQVPGKGLEWMGGFDPEHGETIYAQKFQGRVTMTEDTSTDTAYMELNNLRSEDTAVYYCAILEAGDLDCWGQGTLVTVSS VL: DIQMTQSPSSVSASVGDRVTITCRASQGISNWLAWYQQKPGKAPKVLIYTASSLQSGVPSRFSGSGSGTDFTLTVSGLQPEDFGTYYCQQANSFPFTFGPGTKVDIKR showed EC50 equal to 10.8

fully human antibody 25-3 (antibody, human IgG1, kappa, V domains shown, Human Ig gamma1 / human kappa constant regions; also called 25-3 (fully human); fully human 25-3 antibody) VH: QVQLQESGPGQVKPSQTLSLTCSVSGGSIDSGDHYWTWIRQHPGEVLEWIGYIYSSGHTYYSPSLKSRLTMSLDTSKNQFSLRLSSVTAADTAVYYCARVGDYEWFDTWGQGTLVTVSS VL: DIVMTQSPDSLAVSLGERATINCKSSQTILYPSNNMNYLGWYQQRAGQSPRLLIYWASTRESGVPDRFSGSGSGTDFTLTISSLQAEDVAVYYCQQYYSSLPTFGQGTKVEIKR yielded EC50 of 11.2
